Origin of measurements: PubChem BioAssay (NCI)

Tested on: UACC-62 melanoma
Assay: NCI-60 one-dose screen, 48 h
Conditions: 10 µM
Compounds without any hit were thinned out: in the full panel of roughly 83,000, 20% have a hit. Active and inactive are the calls of the source. How the source made its calls: active means growth percent below 10; inactive means the rest.
Use one of these outcomes when replying: T for active, F for inactive

Hi, sorry to bother you, what did the test record for O=c1[nH]c(=O)n(C2C[C@@H](O)[C@@H](CO)O2)cc1F (stereo partly drawn) ?
F

# iterate: COc1ccc(-c2nc3sc(-c4ccccc4)c(-c4ccccc4)n3c2/C=C/c2ccc(F)cc2)cc1
F

What do you have for CC(=O)/C(=C\c1ccc(Cl)cc1)c1ccccc1 ?
F

Repeat with CCN(CC)CCn1c(=N)n(CC(O)c2ccc(Cl)c(Cl)c2)c2ccccc21 (stereo not drawn)
T

Same lookup for CC1(C)Cc2c(cn(Cc3ccccc3)c2-c2ccccc2)-c2oncc21 , please.
F

How about this compound: CC(=O)[C@H]1CC[C@H]2[C@@H]3CC[C@@H]4CC=C(C=O)C[C@]4(C)[C@H]3CC[C@]12C
F

Try this compound too: O=[N+]([O-])c1cc2ncccc2c2ncccc12
F

Same question for CC(=O)Oc1c(C)c(C)c2c(c1C)CCC(C)(CC(=O)OCCCCCCCCCCC[P+](c1ccccc1)(c1ccccc1)c1ccccc1)O2 (stereo not drawn) please.
T

Entry C[N+]1=C(/C=C/c2ccc(I)cc2)C(C)(C)c2ccccc21 please
F

Try this compound next: COc1cc(C)c2sc3ccccc3c(=O)c2c1NCCN(C)C
T

What do you have for Fc1ccc(Nc2ccnc(N3CCN(c4ccnc5cc(Cl)ccc45)CC3)n2)cc1 ?
F

Param item: O=C(Nc1cccc(C(F)(F)F)c1)C(Cl)Cl
F

Further, for Nc1ccc2c(c1)Cc1cc(N)c(Cl)cc1-2 ?
F

And the next one, CCOc1nc(-c2ccccc2)cc2c(O)c(C(=O)NCCCO)[nH]c(=O)c12 ?
F

# iterate: Nc1c(C(=O)Nc2ccccc2F)sc2nc3c(cc12)C(=O)CCC3
F

Please give the result for CC1(C)CC(OCCCC[P+](c2ccccc2)(c2ccccc2)c2ccccc2)CC(C)(C)N1O too.
T

Let us now turn to N#CCC1CCCC1
F

Cool, now CCCCCCCCCCCCCC[n+]1ccc(C)cc1
T

Moving on to COc1cc2c3c(cccc3c1)C(=O)N(CCN1CCCC1)C2=O
T

// query: COc1ccc(-c2nnc(N3CCN(C(=O)CN4CCN(c5ccc(Cl)cc5)CC4)CC3)nc2-c2ccc(OC)cc2)cc1
F

Do the same for CNC(=O)c1cc(Oc2ccc(NC(=O)Nc3ccc(Cl)c(OC4CCCCC4)c3)c(F)c2)ccn1 please
F

Next compound: Clc1cc(Cl)c(Cl)c(-c2nc(-c3cccnc3)cs2)c1
F

Would you kindly repeat that for COc1cccc(C(=O)NNc2nc(N3CCOCC3)nc(N3CCN(C(c4ccccc4)c4ccccc4)CC3)n2)c1 ?
F

And the next one, CCCCCC(CCC)COC(=O)c1ccc(OC)cc1 (stereo not drawn) ?
F

Further, for Fc1ccc2[nH]c3c(NCCCN4CCOCC4)ncnc3c2c1 ?
F

Next record, please: COc1ccc(C2=NNC(c3sc(Cl)nc3Cl)C2)cc1 (stereo not drawn)
F

Continue with COc1ccc(Nc2ccnc(N3CCN(c4ccnc5cc(Cl)ccc45)CC3)n2)cc1
T

What would you report for Cc1cc(/C=C2\SC(=Nc3ccccc3)N(C3CCCC3)C2=O)c(C)n1-c1ccc(Cl)cc1 ?
T

Now the same for CC(Oc1ccc(Cl)cc1)c1ccccc1 (stereo not drawn)
F

Entry CCOC(=O)c1ccc(NC(=O)Nc2nncs2)cc1 please
F

Next: CCOC(=O)c1sc(NC(=O)c2cc(OC)c(OC)c(OC)c2)nc1C
F

Next: O=C(CCl)N1c2ccccc2Sc2ccc3ccccc3c21
T

Proceed to COC(=O)C1(C(=O)OC)C2C(=O)C3C(C21)C3(C(=O)OC(C)(C)C)C(=O)OC(C)(C)C (stereo not drawn)
F

And then O=C(CCc1ccccc1)N1CCN(C(=O)CCc2ccccc2)CC1 , what is it?
F

Try this compound too: Cc1ccc(S(=O)(=O)Oc2ccccc2-c2ccccc2)cc1
F

Can you check Cc1ccc(C(=O)O)c(N)c1C next?
F

How about this compound: COc1cc(-c2cc(-c3ccc(C)cc3)nc3nc(N)[nH]c(=O)c23)ccc1Oc1ccnc2cc(Cl)ccc12
F

And O=C(NCCCl)c1cc(Cl)cc(Cl)c1 ?
F

And what about the compound COc1cccc(C(=O)N(c2ccc(F)c(F)c2)C(C(=O)NC(C)(C)C)c2cc3c(C)cc(C)cc3nc2Cl)c1 (stereo not drawn) ?
F

And then CCCCCCCCCCCCCCCCCBr , what is it?
F

Another: COCc1cc2c(cc1Br)OCO2
F

Record: O=C(OCC1OC(n2cc(C(F)(F)F)c(=O)[nH]c2=O)CC1OC(=O)c1ccc([N+](=O)[O-])cc1)c1ccc([N+](=O)[O-])cc1 (stereo not drawn)
F

Same for O=C(N/N=c1/ccoc2cccnc12)N1CCN(c2ncccn2)CC1
T
